B1: CPEB3 Ribozyme (parent)
chain: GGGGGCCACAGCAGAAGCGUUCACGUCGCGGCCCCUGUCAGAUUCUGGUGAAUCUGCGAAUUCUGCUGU

Variants of: B1
ASSAY_PROCEDURE: self-cleavage, relative activity (ratio to wild type); higher = more cleavage; co-transcriptional
As shown below, each of these variants has a reported self-cleavage value.

Give the measured self-cleavage of U36G U61C .
0.139

Continuing:
self-cleavage for G31A A60C ?
0.304

Same question, C34G U67A this time
0.847

Also C34A C45G , if possible.
0.427

Also need G14A C63U , thanks.
0.98

// repeat for G28U U43G and report
0.0809

One more variant: A15C U49A
0.889

How about this variant: G50U C66A
0.824

And what about the variant G47A U49A ?
1.01

And G2A C18G ?
0.0324

U26G A42G , same question.
0.78

Entry to check: U21G U36G
0.232
